# tested-target: 2-oxoglutarate/malate translocator, envelope membrane of spinach chloroplasts (Spinacia oleracea)
# Construct: it is cleaved during the import process by a specific protease; the mature protein (m) is formed; from tissue; host or cells: spinach chloroplast envelope membranes
# Sequence (Q41364 94-569): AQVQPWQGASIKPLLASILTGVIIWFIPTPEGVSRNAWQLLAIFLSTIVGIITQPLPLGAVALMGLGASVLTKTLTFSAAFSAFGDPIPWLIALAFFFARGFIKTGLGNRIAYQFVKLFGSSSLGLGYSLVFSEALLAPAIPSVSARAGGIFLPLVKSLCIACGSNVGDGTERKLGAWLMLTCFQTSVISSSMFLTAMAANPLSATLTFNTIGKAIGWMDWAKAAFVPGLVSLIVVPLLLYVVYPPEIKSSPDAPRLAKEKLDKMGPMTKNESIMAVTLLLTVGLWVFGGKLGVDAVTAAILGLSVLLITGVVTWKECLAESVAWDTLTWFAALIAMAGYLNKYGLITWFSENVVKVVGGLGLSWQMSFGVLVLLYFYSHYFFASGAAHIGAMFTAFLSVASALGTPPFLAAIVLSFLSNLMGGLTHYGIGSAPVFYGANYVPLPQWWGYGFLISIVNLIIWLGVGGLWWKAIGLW
# assay-comment: Reconstituted malate transport activity, envelope membrane proteins of spinach chloroplasts in liposomes
# Assay type: biochemical
# particulars: envelope membrane of spinach chloroplasts; liposomes preloaded with the indicated dicarboxylate; standard deviation in brackets
The following compounds are shown together with reported transport activity, percentage of activity measured with malate-preloaded liposomes values.
reported-endpoint: transport activity, percentage of activity measured with malate-preloaded liposomes

>>> result_value("N[C@@H](CCC(=O)O)C(=O)O [Glutamate]")
"6 (±1) %"
>>> result_value("O=C(O)CC(O)C(=O)O (stereo not shown) [Malate]")
"100%"
>>> result_value("O=C(O)CCC(=O)C(=O)O [2-Oxoglutarate]")
"46 (±2) %"
>>> result_value("O=C(O)CCC(=O)O [Succinate]")
"74 (±2) %"
>>> result_value("O=C(O)CCCC(=O)O [Glutarate]")
"52 (±1) %"
>>> result_value("N[C@@H](CC(=O)O)C(=O)O [Aspartate]")
"12 (±1) %"
>>> result_value("O=C(O)/C=C/C(=O)O [Fumarate]")
"72 (±2) %"
